# tested on: prostaglandin transporter (PGT) (Rattus norvegicus)
# Construct: GFP; expressed in transfected cells
# test protocol: PGE2 uptake by MDCK cells stably expressing PGT
# Format: cell-based
# conditions: MDCK; read-out: % Inhib. at 5 μM
property name: inhibition at 5 µM (%)

A: [N-]=[N+]=NCCOCCOCCNC(=O)c1ccc(Nc2nc(NCCOCCOCCNC(=O)c3ccccc3)nc(NCCc3ccccc3)n2)cc1 [T34]
B: CCCNc1nc(NCCOCCOCCNC(=O)c2ccccc2)nc(Nc2ccc(C(=O)NCCOCCOCCN=[N+]=[N-])cc2)n1 [T03A]
Out of A and B , name the one with the higher inhibition at 5 µM. Choose, then provide that item's label.
A
(A: 84%, B: 54%)

====

# tested on: prostaglandin transporter (PGT) (Rattus norvegicus, UniProt Q00910)
# Construct: GFP; expressed in transfected cells
# test protocol: PGE2 uptake by MDCK cells stably expressing PGT
# Assay type: cell-based
# conditions: double-reciprocal plots, PGE2 varied at 0, 3, 6 μM inhibitor
property name: Ki (µM)
Lab book: enter the figure in µM, no units written.

Notebook entry, prostaglandin transporter (PGT) (Rattus norvegicus, UniProt Q00910) assay: Ki of [N-]=[N+]=NCCOCCOCCNC(=O)c1ccc(Nc2nc(NCCOCCOCCNC(=O)c3ccccc3)nc(NCCc3ccccc3)n2)cc1 [T34] = ?
3.7

====

# tested on: prostaglandin transporter (PGT) (Rattus norvegicus, UniProt Q00910)
# Construct: GFP; expressed in transfected cells
# test protocol: PGE2 uptake by MDCK cells stably expressing PGT
# Format: cell-based
# conditions: 10 min pre-incubation
property name: Ki (µM)
Lab book: enter the figure in µM, no units written.

Notebook entry, prostaglandin transporter (PGT) (Rattus norvegicus, UniProt Q00910) assay: Ki of [N-]=[N+]=NCCOCCOCCNC(=O)c1ccc(Nc2nc(NCCOCCOCCNC(=O)c3ccccc3)nc(NCCc3ccccc3)n2)cc1 [T34] = ?
1.63

====

# tested on: prostaglandin transporter (PGT) (Rattus norvegicus, UniProt Q00910)
# Construct: GFP; expressed in transfected cells
# test protocol: PGE2 uptake by MDCK cells stably expressing PGT
# Type: cell-based
# conditions: Table 2
# Procedure: MDCK or 3T3 cells were seeded at 15-20% confluence on 24-well plates. The day on which the cells were seeded was considered day 1. PGE2 uptake experiments were conducted on day 4. All of the PGE2 uptake experiments were conducted at room temperature. […] 1.5 mL of scintillation solution was added to each well, and intracellular [^3H]PGE2 was counted by MicroBeta Counter. […]
pKi: −log10 of the molar value.
property name: pKi

Reference set, count: 3
compound="[N-]=[N+]=NCCOCCOCCNC(=O)c1ccc(Nc2nc(NCCOCCOCCNC(=O)c3ccccc3)nc(Nc3ccc(O)cc3)n2)cc1 [T26A]" tested_on="prostaglandin transporter (PGT) (Rattus norvegicus, UniProt Q00910)" property_name=pKi recorded_number=6.42
compound=[N-]=[N+]=NCCOCCOCCNC(=O)c1ccc(Nc2nc(NCCOCCOCCNC(=O)c3ccccc3)nc(NCCc3ccccc3)n2)cc1 tested_on="prostaglandin transporter (PGT) (Rattus norvegicus, UniProt Q00910)" property_name=pKi recorded_number=5.43
compound="[N-]=[N+]=NCCOCCOCCNC(=O)c1ccc(Nc2nc(NCCOCCOCCNC(=O)c3ccccc3)nc(Nc3ccccc3)n2)cc1 [T28A]" tested_on="prostaglandin transporter (PGT) (Rattus norvegicus, UniProt Q00910)" property_name=pKi recorded_number=5.44

A: [N-]=[N+]=NCCOCCOCCNC(=O)c1ccc(Nc2nc(NCCOCCOCCNC(=O)c3ccccc3)nc(NCCc3ccc(O)cc3)n2)cc1
B: [N-]=[N+]=NCCOCCOCCNC(=O)c1ccc(Nc2nc(NCCOCCOCCNC(=O)c3ccccc3)nc(Nc3ccc(F)cc3)n2)cc1 [T25A]
Lowest pKi? choose A or B Choose, then provide that item's label.
A

====

# tested on: prostaglandin transporter (PGT) (Rattus norvegicus)
# Construct: GFP; expressed in transfected cells
# test protocol: PGE2 uptake by MDCK cells stably expressing PGT
# Format: cell-based
# conditions: MDCK; read-out: % Inhib. at 5 μM
property name: inhibition at 5 µM (%)

compound="[N-]=[N+]=NCCOCCOCCNC(=O)c1ccc(Nc2nc(NCCOCCOCCNC(=O)c3ccccc3)nc(Nc3ccc(F)cc3)n2)cc1 [T25A]" tested_on="prostaglandin transporter (PGT) (Rattus norvegicus)" recorded_number=82
compound="CCCCCCCNc1nc(NCCOCCOCCNC(=O)c2ccccc2)nc(Nc2ccc(C(=O)NCCOCCOCCN=[N+]=[N-])cc2)n1 [T07A]" tested_on="prostaglandin transporter (PGT) (Rattus norvegicus)" recorded_number=74
compound="CC(C)CCNc1nc(NCCOCCOCCNC(=O)c2ccccc2)nc(Nc2ccc(C(=O)NCCOCCOCCN=[N+]=[N-])cc2)n1 [T08A]" tested_on="prostaglandin transporter (PGT) (Rattus norvegicus)" recorded_number=64
compound="[N-]=[N+]=NCCOCCOCCNC(=O)c1ccc(Nc2nc(NCCOCCOCCNC(=O)c3ccccc3)nc(Nc3ccccc3)n2)cc1 [T28A]" tested_on="prostaglandin transporter (PGT) (Rattus norvegicus)" recorded_number=84
compound="[N-]=[N+]=NCCOCCOCCNC(=O)c1ccc(Nc2nc(NCCOCCOCCNC(=O)c3ccccc3)nc(NCc3ccccc3)n2)cc1 [T14A]" tested_on="prostaglandin transporter (PGT) (Rattus norvegicus)" recorded_number=56
compound="[N-]=[N+]=NCCOCCOCCNC(=O)c1ccc(Nc2nc(NCCCc3ccccc3)nc(NCCOCCOCCNC(=O)c3ccccc3)n2)cc1 [T21A]" tested_on="prostaglandin transporter (PGT) (Rattus norvegicus)" recorded_number=72
compound="[N-]=[N+]=NCCOCCOCCNC(=O)c1ccc(Nc2nc(NCCOCCOCCNC(=O)c3ccccc3)nc(Nc3ccc(O)cc3)n2)cc1 [T26A]" tested_on="prostaglandin transporter (PGT) (Rattus norvegicus)" recorded_number=92

====

# tested on: prostaglandin transporter (PGT) (Rattus norvegicus, UniProt Q00910)
# Construct: GFP; expressed in transfected cells
# test protocol: PGE2 uptake by MDCK cells stably expressing PGT
# Format: cell-based
# conditions: Table 1; PGE2 uptake, MDCK cells expressing PGT
property name: Ki (µM)

A: [N-]=[N+]=NCCOCCOCCNC(=O)c1ccc(Nc2nc(NCCOCCOCCNC(=O)c3ccccc3)nc(NCCc3ccc(O)cc3)n2)cc1 [T41]
B: [N-]=[N+]=NCCOCCOCCNC(=O)c1ccc(Nc2nc(NCCOCCOCCNC(=O)c3ccccc3)nc(NCCc3ccccc3)n2)cc1 [T34]
Out of A and B , name the one with the higher Ki. Choose, then provide that item's label.
A

====

# tested on: prostaglandin transporter (PGT) (Rattus norvegicus)
# Construct: GFP; expressed in transfected cells
# test protocol: PGE2 uptake by MDCK cells stably expressing PGT
# Assay type: cell-based
# conditions: Example 2
property name: pKi
Reminder that pKi means the negative base-10 logarithm of the concentration expressed in mol/L.

For the compound shown here, [N-]=[N+]=NCCOCCOCCNC(=O)c1ccc(Nc2nc(NCCOCCOCCNC(=O)c3ccccc3)nc(Nc3ccc(O)cc3)n2)cc1 [T26A] , give the reported pKi.
6.52

====

# tested on: prostaglandin transporter (PGT) (Rattus norvegicus, UniProt Q00910)
# Construct: GFP; expressed in transfected cells
# test protocol: PGE2 uptake by MDCK cells stably expressing PGT
# Format: cell-based
# conditions: 20 min pre-incubation
property name: Ki (µM)
Lab book: enter the figure in µM, no units written.

For the compound shown here, [N-]=[N+]=NCCOCCOCCNC(=O)c1ccc(Nc2nc(NCCOCCOCCNC(=O)c3ccccc3)nc(NCCc3ccccc3)n2)cc1 , give the reported Ki.
1.41

====

# tested on: prostaglandin transporter (PGT) (Rattus norvegicus, UniProt Q00910)
# Construct: GFP; expressed in transfected cells
# test protocol: PGE2 uptake by MDCK cells stably expressing PGT
# Format: cell-based
# conditions: MDCK; read-out: % Inhib. at 5 μM
# Experimental: MDCK or 3T3 cells were seeded at 15-20% confluence on 24-well plates. The day on which the cells were seeded was considered day 1. PGE2 uptake experiments were conducted on day 4. All of the PGE2 uptake experiments were conducted at room temperature. […] 1.5 mL of scintillation solution was added to each well, and intracellular [^3H]PGE2 was counted by MicroBeta Counter. […]
property name: inhibition at 5 µM (%)

molecule=[N-]=[N+]=NCCOCCOCCNC(=O)c1ccc(Nc2nc(NCCOCCOCCNC(=O)c3ccccc3)nc(NCCc3ccc(O)cc3)n2)cc1 property_name="inhibition at 5 µM" unit_label=% recorded_number=65
molecule="[N-]=[N+]=NCCOCCOCCNC(=O)c1ccc(Nc2nc(NCCOCCOCCNC(=O)c3ccccc3)nc(NCCc3ccc(F)cc3)n2)cc1 [T18A]" property_name="inhibition at 5 µM" unit_label=% recorded_number=76
molecule="[N-]=[N+]=NCCOCCOCCNC(=O)c1ccc(Nc2nc(NCCCCc3ccccc3)nc(NCCOCCOCCNC(=O)c3ccccc3)n2)cc1 [T22A]" property_name="inhibition at 5 µM" unit_label=% recorded_number=72
